src = patent US6831075B2

Exercise: for every item that follows, state its recorded inhibition at 1 µM.
- experimental.target: baculoviral GST-MLK2KDLZ (Homo sapiens, UniProt Q02779)
- Construct: 3 μg/ml of baculoviral GST-MLK2KDLZ; GST (N); host or cells: baculovirus expression system
- Sequence (Q02779 98-440 limits assumed): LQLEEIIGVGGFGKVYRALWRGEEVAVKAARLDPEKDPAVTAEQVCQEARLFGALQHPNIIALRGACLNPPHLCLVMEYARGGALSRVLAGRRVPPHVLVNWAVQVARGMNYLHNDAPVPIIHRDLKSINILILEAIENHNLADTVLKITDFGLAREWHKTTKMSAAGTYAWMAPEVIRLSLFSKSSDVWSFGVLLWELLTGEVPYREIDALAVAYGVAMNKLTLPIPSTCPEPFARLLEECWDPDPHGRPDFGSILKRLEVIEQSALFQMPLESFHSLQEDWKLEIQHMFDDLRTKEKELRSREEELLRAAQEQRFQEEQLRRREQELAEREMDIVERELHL
- method.notes: Mixed Lineage Kinase-2 inhibition assay (Millipore Multiscreen plate, 32P)
- Type: biochemical
- applied.conditions: 1 uM compound; 100 μM ATP; read-out: MLK-2 Kinase % inhibition @ 1 uM
The reply should contain only the number, in %.

Documented inhibition at 1 µM of Cc1cc(C)c(C=C2C(=O)NN=C2c2nccs2)[nH]1 : -7

Documented inhibition at 1 µM of O=C1NN=C(c2ccco2)C1=Cc1c[nH]c2ccccc12 : 2

Documented inhibition at 1 µM of Cc1cc(C)c(C=C2C(=O)NN=C2c2cc3ccccc3o2)[nH]1 : 5

Documented inhibition at 1 µM of Cc1cc(C)c(C=C2C(=O)NN=C2c2ccsc2)[nH]1 : 12

Documented inhibition at 1 µM of O=C1NN=C(c2cccs2)C1=Cc1c[nH]c2ccccc12 : 2

Documented inhibition at 1 µM of Cc1cc(C)c(C=C2C(=O)NN=C2c2ccco2)[nH]1 : 10

Documented inhibition at 1 µM of Cc1cc(C)c(C=C2C(=O)NN=C2c2cnccn2)[nH]1 : 17

Documented inhibition at 1 µM of O=C1NN=C(c2nccs2)C1=Cc1c[nH]c2ccccc12 : -4

###

- experimental.target: baculoviral GST-MLK3KD (Homo sapiens, UniProt Q16584)
- Construct: 2 μg/ml of baculoviral GST-MLK3KD; GST (N); host or cells: baculovirus expression system
- Sequence (Q16584 117-379 limits assumed): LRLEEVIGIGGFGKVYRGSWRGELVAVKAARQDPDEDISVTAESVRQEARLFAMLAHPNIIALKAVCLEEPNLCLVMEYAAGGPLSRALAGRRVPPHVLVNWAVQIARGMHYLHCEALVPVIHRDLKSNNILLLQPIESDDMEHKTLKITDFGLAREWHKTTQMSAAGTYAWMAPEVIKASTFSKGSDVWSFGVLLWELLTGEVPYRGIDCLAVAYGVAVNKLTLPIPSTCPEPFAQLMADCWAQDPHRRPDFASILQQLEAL
- method.notes: Mixed Lineage Kinase-3 inhibition assay (Millipore Multiscreen plate, 32P)
- Type: biochemical
- applied.conditions: 1 uM compound; 100 μM ATP
observed.property: MLK-3 Kinase % inhibition @ 1 uM (%)
The reply should contain only the number, in %.

Documented MLK-3 Kinase % inhibition @ 1 uM of CCOC(=O)CCc1c(C(=O)OCC)[nH]c(C=C2C(=O)NN=C2c2ccoc2)c1CC(=O)OCC : 7

Documented MLK-3 Kinase % inhibition @ 1 uM of O=C1NN=C(c2cccs2)C1=Cc1cn(Cc2ccccc2)c2ccccc12 : 24

Documented MLK-3 Kinase % inhibition @ 1 uM of COc1ccc2[nH]cc(C=C3C(=O)NN=C3c3ccoc3)c2c1 : 31

Documented MLK-3 Kinase % inhibition @ 1 uM of O=C1NN=C(c2ccco2)C1=Cc1c[nH]c2ccc(OCc3ccccc3)cc12 : 21

Documented MLK-3 Kinase % inhibition @ 1 uM of Cc1c(I)[nH]c(C=C2C(=O)NN=C2c2ccoc2)c1I : 3

###

- experimental.target: baculoviral GST-MLK2KDLZ (Homo sapiens, UniProt Q02779)
- Construct: 3 μg/ml of baculoviral GST-MLK2KDLZ; GST (N); host or cells: baculovirus expression system
- method.notes: Mixed Lineage Kinase-2 inhibition assay (Millipore Multiscreen plate, 32P)
- Assay type: biochemical
- applied.conditions: 1 uM compound; 100 μM ATP
MLK-2 Kinase % inhibition @ 1 uM vs -10%: at or above is criterion met, below is criterion not met.

Confirm if MLK-2 Kinase % inhibition @ 1 uM reported for the compound Cc1cc(C)c(C=C2C(=O)NN=C2c2cccs2)[nH]1 is -10% or above.
criterion met

Confirm if MLK-2 Kinase % inhibition @ 1 uM reported for the compound Cc1cc(C)c(C=C2C(=O)NN=C2c2ccccn2)[nH]1 is -10% or above.
criterion met

Confirm if MLK-2 Kinase % inhibition @ 1 uM reported for the compound Cc1cc(C)c(C=C2C(=O)NN=C2c2cc(-c3ccc(Cl)cc3)oc2C)[nH]1 is -10% or above.
criterion not met

Confirm if MLK-2 Kinase % inhibition @ 1 uM reported for the compound Cc1cc(C)c(C=C2C(=O)NN=C2c2cc(C)oc2C)[nH]1 is -10% or above.
criterion not met

Confirm if MLK-2 Kinase % inhibition @ 1 uM reported for the compound Cc1nc(C)c(C2=NNC(=O)C2=Cc2c[nH]c3ccccc23)s1 is -10% or above.
criterion not met

Confirm if MLK-2 Kinase % inhibition @ 1 uM reported for the compound Cn1cc(C=C2C(=O)NN=C2c2ccco2)c2ccccc21 is -10% or above.
criterion not met

Confirm if MLK-2 Kinase % inhibition @ 1 uM reported for the compound O=C1NN=C(c2ccoc2)C1=Cc1ccc[nH]1 is -10% or above.
criterion met

Confirm if MLK-2 Kinase % inhibition @ 1 uM reported for the compound Cc1nc[nH]c1C=C1C(=O)NN=C1c1ccco1 is -10% or above.
criterion not met

###

- experimental.target: recombinant human baculovirus-expressed FGFR1 cytoplasmic domain (Homo sapiens, UniProt P11362)
- Construct: recombinant human baculovirus-expressed FGFR1 cytoplasmic domain; host or cells: baculovirus expression system
- Sequence (P11362 398-822 limits assumed): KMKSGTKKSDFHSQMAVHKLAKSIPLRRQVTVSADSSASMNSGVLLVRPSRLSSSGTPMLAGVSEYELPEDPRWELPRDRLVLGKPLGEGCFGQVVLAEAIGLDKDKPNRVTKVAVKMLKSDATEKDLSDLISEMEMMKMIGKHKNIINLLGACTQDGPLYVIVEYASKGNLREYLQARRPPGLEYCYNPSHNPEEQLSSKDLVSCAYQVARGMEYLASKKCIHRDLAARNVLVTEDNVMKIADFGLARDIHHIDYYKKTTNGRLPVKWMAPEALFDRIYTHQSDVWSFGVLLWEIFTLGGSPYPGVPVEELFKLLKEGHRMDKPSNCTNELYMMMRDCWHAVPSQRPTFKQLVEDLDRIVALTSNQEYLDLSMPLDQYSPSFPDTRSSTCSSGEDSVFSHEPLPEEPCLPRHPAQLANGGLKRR
- method.notes: FGFR1 kinase inhibition assay (ELISA-based, time-resolved fluorescence)
- Type: biochemical
- applied.conditions: 1 uM compound; 20 μM ATP
Exercise: for every item that follows, state its recorded inhibition at 1 µM.
The reply should contain only the number, in %.

Documented inhibition at 1 µM of Cc1cc(C)c(C=C2C(=O)NN=C2c2cc3ccccc3o2)[nH]1 : -2

Documented inhibition at 1 µM of O=C1NN=C(c2nccs2)C1=Cc1c[nH]c2ccccc12 : 52

Documented inhibition at 1 µM of Cc1cc(C)c(C=C2C(=O)NN=C2c2cnccn2)[nH]1 : 48

Documented inhibition at 1 µM of O=C1NN=C(c2ccco2)C1=Cc1c[nH]c2ccccc12 : 41

Documented inhibition at 1 µM of Cc1cc(C)c(C=C2C(=O)NN=C2c2ccsc2)[nH]1 : 32

###

Exercise: for every item that follows, state its recorded MLK-2 Kinase % inhibition @ 1 uM.
- experimental.target: baculoviral GST-MLK2KDLZ (Homo sapiens)
- Construct: 3 μg/ml of baculoviral GST-MLK2KDLZ; GST (N); host or cells: baculovirus expression system
- method.notes: Mixed Lineage Kinase-2 inhibition assay (Millipore Multiscreen plate, 32P)
- Type: biochemical
- applied.conditions: 1 uM compound; 100 μM ATP
- Experimental: Inhibition of Mixed Lineage Kinase-2 Activity Assays were performed using the Millipore Multiscreen plate format as described for MLK1. Each 50-μl assay mixture contained 20 mM Hepes, pH 7, 1 mM EGTA, 10 mM MgCl2, 1 mM DTT, 25 mM β-glycerophosphate, 100 μM ATP, 0.25 μCi [γ-^32P]ATP, 0.1% BSA, 500 μg/ml myelin basic protein (UBI #13-104), 2% DMSO, various concentrations of test compound, and 3 μg/ml of baculoviral GST-MLK2KDLZ. Samples were incubated for 15 min. at 37° C. […]
The reply should contain only the number, in %.

Documented MLK-2 Kinase % inhibition @ 1 uM of O=C1NN=C(c2ccoc2)C1=Cc1c[nH]c2ccccc12 : 15

Documented MLK-2 Kinase % inhibition @ 1 uM of CN(C)c1ccc(C=C2C(=O)NN=C2c2ccco2)cc1 : 5

Documented MLK-2 Kinase % inhibition @ 1 uM of COC(=O)c1ccc2[nH]cc(C=C3C(=O)NN=C3c3ccoc3)c2c1 : 7

Documented MLK-2 Kinase % inhibition @ 1 uM of Cc1cccc2c(C=C3C(=O)NN=C3c3ccn(C)c3)c[nH]c12 : 1

Documented MLK-2 Kinase % inhibition @ 1 uM of O=C1NN=C(c2ccco2)C1=Cc1ncc[nH]1 : −48

Documented MLK-2 Kinase % inhibition @ 1 uM of O=C1NN=C(c2ccco2)C1=Cc1cn(CCOCc2ccccc2)c2ccccc12 : 3

Documented MLK-2 Kinase % inhibition @ 1 uM of O=C1NN=C(c2ccco2)C1=Cc1cn(Cc2ccccc2)c2ccccc12 : 4

Documented MLK-2 Kinase % inhibition @ 1 uM of O=C1NN=C(c2ccoc2)C1=Cc1cn(Cc2ccccc2)c2ccccc12 : 16

Documented MLK-2 Kinase % inhibition @ 1 uM of O=C1NN=C(c2cccs2)C1=Cc1c[nH]c2ccccc12 : −21

Documented MLK-2 Kinase % inhibition @ 1 uM of N#CCCn1cc(C=C2C(=O)NN=C2c2ccoc2)c2ccccc21 : −3

Documented MLK-2 Kinase % inhibition @ 1 uM of COc1ccc2[nH]cc(C=C3C(=O)NN=C3c3ccco3)c2c1 : 3

Documented MLK-2 Kinase % inhibition @ 1 uM of Cn1ccc(C2=NNC(=O)C2=Cc2c[nH]c3cccc(OCc4ccccc4)c23)c1 : 0

Documented MLK-2 Kinase % inhibition @ 1 uM of N#CCCn1cc(C=C2C(=O)NN=C2c2nccs2)c2ccccc21 : 9

Documented MLK-2 Kinase % inhibition @ 1 uM of Cn1ccc(C2=NNC(=O)C2=Cc2c[nH]c3ccccc23)c1 : 4

Documented MLK-2 Kinase % inhibition @ 1 uM of O=C1NN=C(c2ccco2)C1=Cc1c[nH]c2ccc(Cl)cc12 : 3

Documented MLK-2 Kinase % inhibition @ 1 uM of Cc1cccc2c(C=C3C(=O)NN=C3c3ccco3)c[nH]c12 : −2

Documented MLK-2 Kinase % inhibition @ 1 uM of Cc1cc(C)c(C=C2C(=O)NN=C2c2ccncc2)[nH]1 : −1

Documented MLK-2 Kinase % inhibition @ 1 uM of Cn1cc(C=C2C(=O)NN=C2c2ccoc2)c2ccccc21 : −3

Documented MLK-2 Kinase % inhibition @ 1 uM of CCc1c(C=C2C(=O)NN=C2c2ccoc2)[nH]c(C(=O)OCc2ccccc2)c1C : 9
